Recorded values, source patent US10517889B2.

The substances listed here are annotated with their % inhibition of SMAD7 mRNA expression.
system: human SMAD7 mRNA; assay: Antisense inhibition of human SMAD7 mRNA expression in Hep3B cells by 5-10-5 MOE gapmers, single concentration, electroporation, RT-PCR (Example 1, Study 1 and 2); assay type: cell-based; conditions: electroporation with 15,000 nM antisense oligonucleotide (Study 2), 5-10-5 MOE gapmers targeting SEQ ID NO: 1 and 2
Strand notation (5' to 3'): a small letter for the sugar, then the base; units joined by * are phosphorothioate-linked, units joined directly phosphodiester-linked; [ ] holds rarer units or linkages, { } end groups; capitals alone tell only the bases. e = 2'-O-(2-methoxyethyl) (MOE); [5mC] = 5-methylcytosine; d = 2'-deoxy (DNA)
Note: unit % is implicit; provide only the numeric part.

// solved cases for % inhibition of SMAD7 mRNA expression follow
771664 (antisense eT*eA*eA*eA*eT*dT*dT*d[5mC]*d[5mC]*dA*dA*dT*dG*dA*dG*eA*eA*eT*eG*e[5mC]) [compound 771664]	5
771666 (antisense eA*e[5mC]*eT*eA*e[5mC]*dA*dA*dT*dG*d[5mC]*dT*dA*dA*dA*dT*eT*eT*e[5mC]*e[5mC]*eA) [compound 771666]	39
771632 (antisense eA*eA*eT*e[5mC]*e[5mC]*dT*dT*d[5mC]*dT*dT*dG*dG*dA*dG*dG*eG*eA*eA*eG*eG) [compound 771632]	31
771672 (antisense eT*eT*eT*eT*eT*dT*d[5mC]*dA*dG*dG*dA*dG*dT*d[5mC]*d[5mC]*eT*eT*eT*e[5mC]*eT) [compound 771672]	2
771648 (antisense e[5mC]*eA*eT*eA*e[5mC]*dG*dA*dG*dT*dG*dT*dA*dT*dG*dA*eG*eT*eT*eG*eT) [compound 771648]	0
771658 (antisense eA*eA*eT*eA*eG*d[5mC]*dT*dT*dA*dT*dG*dT*dT*dA*dA*eA*eG*eT*e[5mC]*eT) [compound 771658]	33
771673 (antisense eA*eG*eG*eT*eT*dT*dT*dT*dT*dT*dT*d[5mC]*dA*dG*dG*eA*eG*eT*e[5mC]*e[5mC]) [compound 771673]	44
771634 (antisense eT*eG*eA*e[5mC]*eG*dG*dA*d[5mC]*d[5mC]*dA*dA*dA*dT*d[5mC]*d[5mC]*eT*eT*e[5mC]*eT*eT) [compound 771634]	53
771689 (antisense eA*eG*eT*eG*eT*dA*d[5mC]*dA*dT*dT*dT*dT*dA*dA*dA*eA*eA*eT*e[5mC]*eG) [compound 771689]	30
771633 (antisense eG*eA*e[5mC]*e[5mC]*eA*dA*dA*dT*d[5mC]*d[5mC]*dT*dT*d[5mC]*dT*dT*eG*eG*eA*eG*eG) [compound 771633]	40

Exam item: I would be grateful if you could share the reported % inhibition of SMAD7 mRNA expression for 771618 (antisense e[5mC]*eA*eG*eG*eA*dT*dG*dG*dG*dA*dG*d[5mC]*dA*dG*dG*e[5mC]*eA*eG*eT*eG) [compound 771618] .
Marked response: 30

Exam item: I would be grateful if you could share the reported % inhibition of SMAD7 mRNA expression for 771640 (antisense eG*eG*eT*eG*eT*d[5mC]*dA*dG*d[5mC]*d[5mC]*dT*dA*dG*dG*dA*eT*eG*eG*eT*eA) [compound 771640] .
Marked response: 0
